Test system: mouse melan-a cells
Experiment: Melanocyte proliferant activity of piperine derivatives, SRB assay, 4 days, 10% FBS
Type: cell-based
Details: Mus musculus, Melan-a, 96 h, single concentration (10 μM); melan-a; ± SEM; read-out: Percentage cell growth (Repeated experiments)
Recorded activity at 10 µM by entry

{"columns": ["Chemical String", "activity at 10 µM [%]"],
 "data": [
  ["COc1ccc(/C=C/C(=O)N2CCCCC2)cc1", 121],
  ["COc1ccc(/C=C/C(=O)N2CCCCC2)cc1OC", 100],
  ["O=C(/C=C/c1ccc2c(c1)OCO2)N1CCOCC1", 103],
  ["O=C(/C=C/C=C/c1ccc2c(c1)OCO2)NC1CCCCC1", 308],
  ["CC(C)CNC(=O)/C=C/C=C/c1ccc2c(c1)OCO2", 147],
  ["CCNC(=O)/C=C/C=C/c1ccc2c(c1)OCO2", 200],
  ["CCCCOC(=O)/C=C/C=C/c1ccc2c(c1)OCO2", 148],
  ["O=C(/C=C/c1ccc2c(c1)OCO2)N1CCCC1", 140]
]}

---

Tested on: mouse melan-a cells
Test: Melanocyte proliferant activity of piperine derivatives, SRB assay, 4 days, 10% FBS
Format: cell-based
Settings: Mus musculus, Melan-a, 96 h, 10 μM; read-out: growth of melan-a cells as % of control, dose experiment

{"columns": ["Compound", "activity at 10 µM [%]"],
 "data": [
  ["O=C(/C=C/c1ccc2c(c1)OCO2)N1CCCCC1", 147],
  ["COc1ccc(/C=C/C(=O)N2CCCCC2)cc1OC", 100],
  ["O=C(CCCCc1ccc2c(c1)OCO2)N1CCCCC1 [RV-C02, Tetrahydropiperine]", 183],
  ["CCCOC(=O)/C=C/C=C/c1ccc2c(c1)OCO2", 151],
  ["CCNC(=O)/C=C/C=C/c1ccc2c(c1)OCO2", 200],
  ["O=C(/C=C/C=C/c1ccc2c(c1)OCO2)NCc1ccc2c(c1)OCO2", 138],
  ["O=C(/C=C/C=C/c1ccc2c(c1)OCO2)N1CCOCC1", 167],
  ["COc1ccc(/C=C/C(=O)N2CCCCC2)cc1", 108],
  ["COc1ccccc1/C=C/C(=O)N1CCCCC1", 105],
  ["CC(C)OC(=O)/C=C/C=C/c1ccc2c(c1)OCO2", 224],
  ["CNC(=O)/C=C/C=C/c1ccc2c(c1)OCO2", 170],
  ["O=C(/C=C/C=C/c1ccc2c(c1)OCO2)NC1CCCCC1", 308],
  ["COc1cccc(/C=C/C(=O)N2CCCCC2)c1", 95],
  ["CC(C)NC(=O)/C=C/C=C/c1ccc2c(c1)OCO2", 224],
  ["O=C(/C=C/C=C/c1ccc2c(c1)OCO2)N1CCCC1", 122],
  ["CCCCOC(=O)/C=C/C=C/c1ccc2c(c1)OCO2", 148]
]}

---

System: melan-a cells
Test: Dendricity of melan-a cells by observation under microscope
Assay type: cell-based, mouse
Set-up: key: +++: highly dendritic; ++: moderately dendritic; +: weakly dendritic; −: no effect
Conditions: Table 9; 10 μM

{"columns": ["Compound", "Dendricity"],
 "data": [
  ["CC(C)OC(=O)/C=C/C=C/c1ccc2c(c1)OCO2 [RV-AB4, 5-E,E-piperinic Acid Isopropyl Ester]", "++"],
  ["CCOC(=O)/C=C/C=C/c1ccc2c(c1)OCO2 [RV-AB2, 5-E,E-piperinic Acid Ethyl Ester]", "Toxic"],
  ["COC(=O)/C=C/C=C/c1ccc2c(c1)OCO2 [RV-AB1, 5-E,E-piperinic Acid Methyl Ester]", "++"],
  ["CCCCOC(=O)/C=C/C=C/c1ccc2c(c1)OCO2 [RV-AB6, 5-E,E-piperinic Acid Butyl Ester]", "+"],
  ["CCCOC(=O)/C=C/C=C/c1ccc2c(c1)OCO2 [RV-AB5, 5-E,E-piperinic Acid Propyl Ester]", "++"]
]}
